# procedure.text: qHTS assay to identify small molecule antagonists of the thyroid receptor (TR) signaling pathway (AID 743065); further: nearly all actives have a fitted effect of over 55% in size
# measurement.conditions: GH3.TRE-Luc, T3-stimulated luciferase inhibition, 23.5 h; series mostly up to 70.3 µM
Inconclusive results are not listed. Active and inactive are the calls of the source. The call rests on the fitted dose curve; in most records, active means well fitted inhibition curve with a large enough effect in the repeat runs; inconclusive means weak or mixed curves; inactive means no such curve, though single readings can be large or run the other way.
measured.parameter: outcome

Some molecules with recorded outcome:
>>> result("CC(=O)OCCC(C)CC(C)(C)C (stereo not drawn)")
"inactive"
>>> result("CNc1c2c(nn1C)CCCC2")
"inactive"
>>> result("CC(=O)C(=O)CC(C)C")
"inactive"
>>> result("CC1=CC[C@@H]2C[C@H]1C2(C)C")
"inactive"
>>> result("CC(C)(C)C(O)/C=C/c1ccc2c(c1)OCO2 (stereo not drawn)")
"inactive"

Please state, for each entry, its recorded outcome.
1. O=C(O)CCCc1c[nH]c2ccccc12
2. C=C(C)C(=O)OCCC(F)(F)C(F)(F)C(F)(F)C(F)(F)C(F)(F)C(F)(F)F

["inactive", "inactive"]

Using known records, supply outcome for NC(=O)c1ccccc1[N+](=O)[O-]
inactive
